- Target Of Assay: Protein farnesyltransferase (Homo sapiens, UniProt P49354+P49356)
- Experiment Notes: Inhibition of [3H]FPP incorporation into H-ras CVLS by Farnesyltransferase
- Type: protein-complex assay
Assay Metric: IC50 (pM)
Numeric only. Scale: pM

Request the reported IC50 associated with O=C(Cc1cc[n+]([O-])cc1)N1CCC([C@@H]2c3ncc(Br)cc3C=Cc3cc(Cl)cc(Br)c32)CC1
320

====

- Experiment Notes: Inhibition of soft agar colony formation in H-Ras transformed cells
- Format: functional, cell-based
Listed here are compounds together with their documented pIC50.
Please note pIC50 is a logarithmic value: minus log10 of concentration in mol/L. Answer with that number alone.

O=C(Cc1cc[n+]([O-])cc1)N1CCC([C@@H]2c3ncc(Br)cc3C=Cc3cc(Cl)cc(Br)c32)CC1 7.52

For the compound shown here, NC(=O)N1CCC(CC(=O)N2CCC([C@H]3c4ncc(Br)cc4CCc4cc(Cl)cc(Br)c43)CC2)CC1 , give the reported pIC50.
7.15
